experiment: recombinant UMI read abundance after kanamycin selection (control-corrected) (log10(CPM+1)); higher = more efficient recombination; extreme values may be limits of the assay; sequences stand for … in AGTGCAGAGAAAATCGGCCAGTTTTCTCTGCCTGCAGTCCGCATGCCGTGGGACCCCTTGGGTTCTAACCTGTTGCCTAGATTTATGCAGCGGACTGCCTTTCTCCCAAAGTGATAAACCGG…AGGTTGGTTTCACT; site = the 11-nt donor;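 also: IS621 bridge recombinase in Escherichia coli cells against a fixed T5 target plasmid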
# binning rule on recombinant UMI read abundance (log10): L (below 0.009), M (0.009 to below 0.7), H (0.7 or more)

Consider the worked cases shown below.
GATTGTACATGGACCGGTTTTCCCGGTAATCCGTATTTGAC (site GATTGAACTGT) | L
CCCGGTCCATGGACCGGTTTTCCCGGTAATCCGTATTTGCA (site TCCGGTCCTTG) | L
ACCGAGCCATGGACCGGTTTTCCCGGTAATCCGTATTTGAT (site ACCGAGCCTAT) | H

Which bin should I file TGGACGGCATGGACCGGTTTTCCCGGTAATCCGTATTTGGC (site TGGCCGGCTGC) under? M

// same read-out, input: GCAAACGCATGGACCGGTTTTCCCGGTAATCCGTATTTGGT (site GCAAACGCTAC) H

// same read-out, input: CGGCGTACATGGACCGGTTTTCCCGGTAATCCGTATTTGTC (site CGGCGTACTGA) H

// same read-out, input: GTAAAAGCATGGACCGGTTTTCCCGGTAATCCGTATTTGCC (site GTAAAAGCTGG) H

// same read-out, input: ATATGCACATGGACCGGTTTTCCCGGTAATCCGTATTTGTA (site ATATGCACTTA) H

// same read-out, input: CACTTGGCATGGACCGGTTTTCCCGGTAATCCGTATTTGGA (site CACTTGTCTTC) H

// same read-out, input: TGTTCGGCATGGACCGGTTTTCCCGGTAATCCGTATTTGAC (site TGTTCGGCTGT) M

* * *

assay: recombinant UMI read abundance after kanamycin selection (control-corrected) (log10(CPM+1)); higher = more efficient recombination; extreme values may be limits of the assay; sequences stand for … in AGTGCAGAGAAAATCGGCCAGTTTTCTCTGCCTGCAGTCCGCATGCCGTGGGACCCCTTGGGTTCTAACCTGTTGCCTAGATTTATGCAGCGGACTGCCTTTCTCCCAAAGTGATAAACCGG…AGGTTGGTTTCACT; site = the 11-nt donor
# recombinant UMI read abundance (log10) annotations
Output: the number by itself.

CTCGAAACATGGACCGGTTTTCCCGGTAATCCGTATTTGCA (site CTGGAAACTTG) | 0
TTTCGCACATGGACCGGTTTTCCCGGTAATCCGTATTTGTC (site TTTCGCACTGA) | 0.308
AGGTTCGCATGGACCGGTTTTCCCGGTAATCCGTATTTGTG (site AGGTTCCCTCA) | 0.015

May I ask what recombinant UMI read abundance (log10) has been recorded for ACAAGAACATGGACCGGTTTTCCCGGTAATCCGTATTTGTC (site ACATGAACTGA) ? 0

// same read-out, input: GCTTGCCCATGGACCGGTTTTCCCGGTAATCCGTATTTGAA (site GCTTGCCCTGT) 0

// same read-out, input: AGTGTATCATGGACCGGTTTTCCCGGTAATCCGTATTTGCA (site ACAGTATCTTG) 1.69

// same read-out, input: GAGTATCCATGGACCGGTTTTCCCGGTAATCCGTATTTGCT (site GAATATCCTAG) 0

// same read-out, input: CCCCACTCATGGACCGGTTTTCCCGGTAATCCGTATTTGTA (site CCCCACGCTTA) 0.00566
